B1: Twister Ribozyme (parent)
chain: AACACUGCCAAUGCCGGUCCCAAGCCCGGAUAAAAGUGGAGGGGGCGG

# Variants of: B1
# METHOD_NOTES: self-cleavage, relative activity (ratio to wild type); higher = more cleavage; co-transcriptional
The reader will find reported self-cleavage values listed item by item below.
# answer = number (no unit)

Entry under test: A22U G43C . Its self-cleavage was 0.129

Entry under test: A35U G36A . Its self-cleavage was 0.593

Entry under test: C15U A30G . Its self-cleavage was 0.759
